Overview of reported Activity across a group of compounds:
System: 3T3-L1
test_method_notes: Cytotoxicity against mouse 3T3L1 cells at 30 uM
Type: cell-based
experimental_setup: 3t3-l1, 30 µM
Express the result in % but write the number alone.

Worked examples follow.
>  <compound>
O=C(/C=C/C=C/CC/C=C/c1ccc2c(c1)OCO2)N1CCCCC1 [DEHYDROPIPERNOLINE]

>  <target_or_test_system>
3T3-L1

>  <measurement_name>
Activity

>  <value_units>
%

>  <test_value>
-19.9

$$$$
>  <compound>
O=C(/C=C/CCCC/C=C/c1ccc2c(c1)OCO2)N1CCCCC1

>  <target_or_test_system>
3T3-L1

>  <measurement_name>
Activity

>  <value_units>
%

>  <test_value>
-61.2

$$$$
>  <compound>
O=C(/C=C/CCCCCC/C=C/c1ccc2c(c1)OCO2)N1CCCCC1 [PIPERCHABAMIDE B]

>  <target_or_test_system>
3T3-L1

>  <measurement_name>
Activity

>  <value_units>
%

>  <test_value>
-30.3

$$$$

With those in mind, consider the next compound.
For the compound shown here, O=C(/C=C/C=C/CCCC/C=C/c1ccc2c(c1)OCO2)N1CCCCC1 , give the reported Activity.
-60.8
